- test-target: Cytochrome P450 2C19 (Homo sapiens) (UniProt P33261)
- Sequence (P33261 whole entry, looked up): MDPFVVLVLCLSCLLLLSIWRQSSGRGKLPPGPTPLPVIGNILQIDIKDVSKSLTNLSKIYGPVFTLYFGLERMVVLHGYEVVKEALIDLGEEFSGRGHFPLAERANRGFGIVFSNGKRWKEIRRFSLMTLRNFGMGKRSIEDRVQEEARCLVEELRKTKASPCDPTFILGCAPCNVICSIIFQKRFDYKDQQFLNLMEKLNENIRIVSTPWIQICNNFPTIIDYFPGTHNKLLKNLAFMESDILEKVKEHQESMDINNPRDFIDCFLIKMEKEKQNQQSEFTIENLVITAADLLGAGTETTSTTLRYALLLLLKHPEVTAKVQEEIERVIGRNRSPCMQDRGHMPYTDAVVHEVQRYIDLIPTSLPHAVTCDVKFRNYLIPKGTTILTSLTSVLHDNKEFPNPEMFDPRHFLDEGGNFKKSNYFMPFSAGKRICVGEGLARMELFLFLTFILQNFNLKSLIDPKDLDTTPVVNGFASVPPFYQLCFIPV
- test-details: Cytochrome panel assay with activity outcomes
- reported-conditions: recombinant CYP, pro-luciferin dealkylation, luminescence, p450-cyp2c19; series mostly up to 57.1 µM
Screen size: about 16,000 compounds; about 5,800 (36%) were called active. Another 23% or so got no clear call; they are omitted. Calls follow the shape of the dose curve; as a rule, active = well fitted curve in the direction sought with a large enough effect; inconclusive = small, poorly fitted or top-dose-only effect, or effect the other way; inactive = no such curve, though single readings can be large or run the other way. Some of the results follow.
Form entry, call: pick from Y = active, N = inactive

Example results:
COc1ccc(C(=O)N/N=C(\C)Cn2nc([N+](=O)[O-])cc2C)cc1    N
O=c1c(-c2ccccc2)nc2cnc(N3CCOCC3)nc2n1-c1ccccc1    N
CC(C)(C)N(NC(=O)Nc1ccccc1)C(=O)c1ccccc1Cl    Y
C/C(=N\NC(=O)Cc1ccc(Cl)cc1)c1ccccn1    Y
Cc1nn(C(=O)c2ccco2)c(C)c1Sc1ccccc1    Y
COc1ccc(C2C(C#N)=C(N)Oc3n[nH]c(C)c32)cc1CN1CCN(c2ccc(F)cc2)CC1 (stereo not drawn)    Y

-- ask Test call, this molecule: `O=C(c1ccco1)N1CCC2(CC1)CCN(c1ccccc1)CC2`
-- reply N

-- ask Test call, this molecule: `Cc1cccc(N2CCN(C(=O)CSCc3c(C)noc3C)CC2)c1C`
-- reply Y

-- ask Test call, this molecule: `Cc1cc(CC(=O)O)n(C)c1C(=O)c1ccc(Cl)cc1`
-- reply N

-- ask Test call, this molecule: Cc1cccc(C)c1NC(=O)C(NC=O)c1ccccc1Cl (stereo not drawn)
-- reply Y

-- ask Test call, this molecule: `Cc1ccc(-c2cc(C(=O)NCc3ccco3)c3ccccc3n2)s1`
-- reply Y

-- ask Test call, this molecule: `Cc1nn(C(=O)c2cccnc2)c(C)c1Sc1ccc(Br)cc1`
-- reply Y

-- ask Test call, this molecule: Cc1ccc(CSc2nnc(-c3ccncc3)n2CC2CCCO2)cc1 (stereo not drawn)
-- reply Y

-- ask Test call, this molecule: `CCOc1c(OC(C)=O)ccc(/C=C/c2ccc3cccc(OC(C)=O)c3n2)c1[N+](=O)[O-]`
-- reply Y

-- ask Test call, this molecule: `O=C(N/N=C/C1CCCCC1)c1ccccn1`
-- reply N

-- ask Test call, this molecule: `Cc1c(C(=O)Nc2cccc(C(F)(F)F)c2)oc2ccc(S(=O)(=O)N3CCOCC3)cc12`
-- reply Y

-- ask Test call, this molecule: `CC[N+](C)(CC)CCOC(=O)C1c2ccccc2Oc2ccccc21`
-- reply N

-- ask Test call, this molecule: `CC(C)(C(=O)c1cccnc1)c1cccnc1`
-- reply N

-- ask Test call, this molecule: `COC(=O)c1cccc(NC(=O)Nc2ccc(Cl)c(Cl)c2)c1`
-- reply Y

-- ask Test call, this molecule: CCC(=O)Nc1ccc(C(=O)CSc2nnc(-c3ccc(O)cc3)n2CC2CCCO2)cc1OC (stereo not drawn)
-- reply N

-- ask Test call, this molecule: `CCn1c(C)nc2cc(C(=O)NNS(=O)(=O)c3ccccc3F)ccc21`
-- reply N

-- ask Test call, this molecule: Cc1c(C(=O)NC2CCCc3ccccc32)oc2ccc(S(=O)(=O)N3CCOCC3)cc12 (stereo not drawn)
-- reply Y

-- ask Test call, this molecule: `O=C(/C=C\NCC(=O)c1ccccc1)c1ccc(F)cc1`
-- reply Y

###

- test-target: Cytochrome P450 2C19 (Homo sapiens)
- test-details: Cytochrome panel assay with activity outcomes
- reported-conditions: recombinant CYP, pro-luciferin dealkylation, luminescence, p450-cyp2c19; series mostly up to 57.1 µM
In all, about 16,000 compounds went through this assay and about 5,800 (36%) were called active. Not shown: some 23% with an inconclusive outcome. The list shows a part of the results.
measurement-type: AC50

CS(=O)(=O)N1CCC2(CCCN(C(=O)Nc3cccc(F)c3)C2)CC1    inactive
COc1ccc(NC(=O)N2CC[C@@]3(CCCN(C(=O)c4cnccn4)C3)C2)cc1    inactive
CC(C)C(=O)Nc1ccc(C(=O)NNC(=O)C(c2ccccc2)c2ccccc2)cc1    inactive
Cc1cc(C(=O)N/N=C/c2cccc(OC(=O)c3ccco3)c2)n[nH]1    25.1 µM (active)
COc1ccccc1CN1CC[C@@]2(CCCN(C(=O)c3ccco3)C2)C1    inactive

-- ask Specify reported AC50 for the compound shown: `COc1ccc(Oc2ncc3nc(-c4ccc(F)cc4)c(=O)n(Cc4cccs4)c3n2)cc1`
-- reply inactive

-- ask Specify reported AC50 for the compound shown: CCOc1ccc(/C=C2\C(=O)c3ccccc3OC2c2ccccc2)cc1 (stereo not given)
-- reply 1.12 µM (active)

-- ask Specify reported AC50 for the compound shown: `Cc1nc(Oc2ccc(Cl)cc2)c2oc3ccccc3c2n1`
-- reply 2 µM (active)

-- ask Specify reported AC50 for the compound shown: `CC(C)C(=O)Nc1ccc(C(=O)NNC(=O)CCCOc2ccc(Cl)cc2Cl)cc1`
-- reply 4.47 µM (active)

-- ask Specify reported AC50 for the compound shown: `NC(=O)N/N=C\c1ccc([N+](=O)[O-])o1`
-- reply inactive

###

- test-target: Cytochrome P450 2C19 (Homo sapiens) (UniProt P33261)
- test-details: Cytochrome panel assay with activity outcomes
- reported-conditions: recombinant CYP, pro-luciferin dealkylation, luminescence, p450-cyp2c19; series mostly up to 57.1 µM
Out of some 16,000 compounds screened, about 5,800 (36%) were called active. Inconclusive results (about 23%) are left out. Calls follow the shape of the dose curve; as a rule, active = well fitted curve in the direction sought with a large enough effect; inconclusive = small, poorly fitted or top-dose-only effect, or effect the other way; inactive = no such curve, though single readings can be large or run the other way. This is one part of the list.
Form entry, call: pick from t = active, f = inactive

COc1ccc(/C=N\NC(=O)C2C(=O)NCC2c2ccccc2)cc1O (stereo unspecified)    f
COc1ccc(-c2cc(C(F)(F)F)nc(N3CCN(C)CC3)n2)cc1OC    f
Oc1cc(O)c2c(c1)O[C@H](c1ccc(O)c(O)c1)[C@H](O)C2    f
COc1ccc(-c2cc(C(F)(F)F)nc(NC3CCCC3)n2)cc1OC    t

Now consider the entry below.
-- ask Test call, this compound: `Cc1nnc(SCC(=O)N2CC(=O)Nc3ccccc32)n1Cc1ccccc1`
-- reply f

###

- test-target: Cytochrome P450 2C19 (Homo sapiens) (UniProt P33261)
- test-details: Cytochrome panel assay with activity outcomes
- reported-conditions: recombinant CYP, pro-luciferin dealkylation, luminescence, p450-cyp2c19; series mostly up to 57.1 µM
About 5,800 (36%) of roughly 16,000 compounds were called active. Roughly 23% stayed inconclusive and do not appear here. The call rests on the fitted dose curve; in most records, active means well fitted curve in the direction sought with a large enough effect; inconclusive means small, poorly fitted or top-dose-only effect, or effect the other way; inactive means no such curve, though single readings can be large or run the other way. The list shows a part of the results.
Form entry, call: pick from t for active, f for inactive

Example results:
CCOC(=O)c1c(NC(=O)/C=C/c2ccc3c(c2)OCO3)sc(C)c1C    f
NC(N)=NC(=O)c1nc(Cl)c(N2CCCCCC2)nc1N    t
O=C(/C=C/c1ccco1)Nc1ccc(Oc2ccccc2)cc1    t
CN(C)c1nc(N)c(C(=O)N=C(N)N)nc1Cl    f
NC(N)=NC(=O)c1nc(Cl)c(N)nc1N    f

-- ask Test call, this compound: `CCOC(=O)c1c(NC(=O)/C=C/c2ccc3c(c2)OCO3)sc(C)c1CC`
-- reply t

###

- test-target: Cytochrome P450 2C19 (Homo sapiens) (UniProt P33261)
- test-details: Cytochrome panel assay with activity outcomes
- reported-conditions: recombinant CYP, pro-luciferin dealkylation, luminescence, p450-cyp2c19; series mostly up to 57.1 µM
Out of some 16,000 compounds screened, about 5,800 (36%) were called active. Roughly 23% stayed inconclusive and do not appear here. The list shows a part of the results.
measurement-type: AC50

Below, 5 compounds whose answers are already recorded.
CC1(C)C(=O)N(CCN2CCC(C(=O)c3ccc(F)cc3)CC2)c2ccccc21    inactive
COC(=O)N1CCC2(CC1)CN(C(=O)Nc1cccc(C#N)c1)C2    inactive
CCCC(=O)Nc1cccc(Oc2nc(C)cc(C)c2C#N)c1    17.8 µM (active)
Nc1nc(N)c(-c2cccc(C(F)(F)F)c2)c(Cc2cccc(C(F)(F)F)c2)n1    2.51 µM (active)
COc1ccc(N2CC(C(=O)Nc3cc(C)on3)CC2=O)cc1 (stereo unspecified)    inactive

Then this compound:
-- ask Specify reported AC50 for the compound shown: `COc1ccccc1CN1CC2(CCN(S(C)(=O)=O)CC2)C1`
-- reply inactive

###

- test-target: Cytochrome P450 2C19 (Homo sapiens) (UniProt P33261)
- test-details: Cytochrome panel assay with activity outcomes
- reported-conditions: recombinant CYP, pro-luciferin dealkylation, luminescence, p450-cyp2c19; series mostly up to 57.1 µM
About 5,800 (36%) of roughly 16,000 compounds were called active. Not shown: some 23% with an inconclusive outcome. This is one part of the list.
measurement-type: AC50

Below, 5 compounds whose answers are already recorded.
CCNc1ncc2nc(-c3ccccc3)c(=O)n(CCC#N)c2n1    inactive
COC(=O)[C@H]1C[C@@H]1[C@H](NC(=O)c1cnccn1)c1ccccc1    inactive
COc1ccc(OC(=O)c2ccncc2)cc1    1.41 µM (active)
Cn1c(SCc2nc3ccccc3n2CCO)nc2ccccc21    6.31 µM (active)
CCNc1ncc2nc(C)c(=O)n(CCc3ccccc3)c2n1    0.316 µM (active)

-- ask Specify reported AC50 for the compound shown: `Cn1cc[nH]c1=S`
-- reply inactive

-- ask Specify reported AC50 for the compound shown: `Cc1nc2cnc(Nc3ccccc3)nc2n(CCc2ccccc2)c1=O`
-- reply inactive

-- ask Specify reported AC50 for the compound shown: `CCCCOc1ccc(CC(=O)NO)cc1`
-- reply inactive

-- ask Specify reported AC50 for the compound shown: `COc1ccc(C(=O)N2CCC3(CC2)CN(c2ccncc2)C3)cc1`
-- reply inactive

-- ask Specify reported AC50 for the compound shown: C(=C1/CCCC2=C1Nc1ncnn1C2c1ccccc1)/c1ccccc1 (stereo not given)
-- reply inactive

-- ask Specify reported AC50 for the compound shown: `CCNc1ncc2nc(-c3cccs3)c(=O)n(CCc3ccccc3)c2n1`
-- reply inactive

-- ask Specify reported AC50 for the compound shown: `N[C@@H](CO)C(=O)O`
-- reply inactive

-- ask Specify reported AC50 for the compound shown: `Cl/C(=C\n1cncn1)c1ccc(Cl)cc1Cl`
-- reply inactive

-- ask Specify reported AC50 for the compound shown: `CCCCOc1ccc(OC(=O)c2cccnc2)cc1`
-- reply 17.8 µM (active)

-- ask Specify reported AC50 for the compound shown: `O=C(Nc1ccc(F)cc1F)c1cccn1-c1ncc(C(F)(F)F)cc1Cl`
-- reply 10 µM (active)
